Where do the numbers come from? From the MegaScale stability set (Tsuboyama et al. 2023).

B1: EEHEE_rd4_0469 (parent)
chain: ITIHVNGVTYHFDNPEEAEKFAQKMAKTYQLKMEIHNGEFHME

Variants of: B1
experimental-details: folding stability dG (cDNA display proteolysis); higher = more stable
assay-setup: PBS, room temperature
readout: folding stability dG

P15S 1.1 kcal/mol
A18G 1.03 kcal/mol
Y29N 1.29 kcal/mol
M33W 1.36 kcal/mol
A18V 0.798 kcal/mol
A26G 0.919 kcal/mol

Lab note: D13R gave folding stability dG of 1.15 kcal/mol
